The entries below are paired with their reported 1-BDC.
- subject of test: SARS-CoV-2 NSP3 Mac1 (Severe acute respiratory syndrome coronavirus 2, UniProt P0DTD1)
- Assay type: binding
- condition description: PanDDA 1-BDC value of the event; crystal soak, compound concentration 100 mM; per dataset
Would you mind answering with just the numeric figure?

Example entries and their recorded answers appear below.
| compound | subject of test | 1-BDC |
| --- | --- | --- |
| Nc1ncc(S(=O)(=O)N2CC(F)(F)C[C@H]2C(=O)O)cn1 [Compound Z1314] | SARS-CoV-2 NSP3 Mac1 (Severe acute respiratory syndrome coronavirus 2, UniProt P0DTD1) | 0.49 |
| O=C(Nc1ccc(C(=O)N[C@H]2c3ccccc3CC[C@H]2C(=O)O)cc1)NC1CC1 [8539_0030] | SARS-CoV-2 NSP3 Mac1 (Severe acute respiratory syndrome coronavirus 2, UniProt P0DTD1) | 0.32 |
| Cc1ccc(-c2nc(Cn3cnc4c(N)nc(N)nc43)cs2)o1 [Z4718398580] | SARS-CoV-2 NSP3 Mac1 (Severe acute respiratory syndrome coronavirus 2, UniProt P0DTD1) | 0.28 |
| O=C(O)C1(F)CN(c2ncnc3[nH]c4cc(F)ccc4c23)CC12CCC2 (stereo not drawn) [LL1_0023] | SARS-CoV-2 NSP3 Mac1 (Severe acute respiratory syndrome coronavirus 2, UniProt P0DTD1) | 0.28 |
| Cn1nc(O)c2c1CN(C(=O)c1cc(O)cc(=O)o1)CC2 [FRESH00002410346] | SARS-CoV-2 NSP3 Mac1 (Severe acute respiratory syndrome coronavirus 2, UniProt P0DTD1) | 0.07 |
| Cc1ccc([C@@H]2C[C@@H](C)CCN2C(=O)c2ncnc3[nH]ccc23)o1 [ZINC000611664196] | SARS-CoV-2 NSP3 Mac1 (Severe acute respiratory syndrome coronavirus 2, UniProt P0DTD1) | 0.05 |
| O=C(NC1c2ccccc2CC1C(=O)O)c1ccc(NC(=O)C2CC2)cc1 (stereo not drawn) [Z9604] | SARS-CoV-2 NSP3 Mac1 (Severe acute respiratory syndrome coronavirus 2, UniProt P0DTD1) | 0.04 |
| O=C(NC1c2cccc(O)c2CC1C(=O)O)c1cnc(NC2CCOCC2)cn1 (stereo not drawn) [8539_0007] | SARS-CoV-2 NSP3 Mac1 (Severe acute respiratory syndrome coronavirus 2, UniProt P0DTD1) | 0.2 |

Now for a further compound.
1-BDC for O=C(Nc1ccc(C(=O)NCc2c(C(=O)O)oc3ccccc23)cc1)NC1CC1 [Z8539_0026] ?
0.3

====

- subject of test: SARS-CoV-2 NSP3 Mac1 (Severe acute respiratory syndrome coronavirus 2, UniProt P0DTD1)
- Format: binding
- Set-up: contains a conserved macrodomain enzyme (Mac1)
- condition description: DSF dose responsiveness, 1 µM nsp3 mac1; adj p given
measured metric: Spearman est (compound concentration vs apparent Tm)

What does the data say about its Spearman est (compound concentration vs apparent Tm)? Entry: Cc1ccc(C(=O)N2CC[C@H](Oc3ccccc3)C2)cc1O
−0.6

Name the reported Spearman est (compound concentration vs apparent Tm) value associated with the compound CCc1noc(C(C)OC(=O)c2cccc3[nH]c(=O)oc23)n1 (stereo not shown)
−0.41

Please give the measured Spearman est (compound concentration vs apparent Tm) for this compound: CCc1c[nH]c2ncnc(N3CCC[C@H](C(N)=O)C3)c12
0.97

Look up Spearman est (compound concentration vs apparent Tm): COc1ccc(Cl)cc1Cn1cnc2c(N)ncnc21
0.55

// lookup Spearman est (compound concentration vs apparent Tm) for O=C1CC2(CC2)C(CSc2n[nH]c(-c3ccccn3)n2)O1 (stereo not shown)
0.52

# lookup: Spearman est (compound concentration vs apparent Tm) of OC[C@H]1CCCN(c2ncnc3[nH]c4cc(F)ccc4c23)C1
0.95

Quick one: Spearman est (compound concentration vs apparent Tm) of O=C(c1ncnc2[nH]ccc12)N1CC(n2ccnn2)C1 ?
−0.36
